Molecular target: T1, human IL-10 receptor (hIL-10R alpha and beta chains) on HEK-Blue IL-10 reporter cells (human, UniProt Q13651 22-578; Q08334 20-325)
T1 sequence 1: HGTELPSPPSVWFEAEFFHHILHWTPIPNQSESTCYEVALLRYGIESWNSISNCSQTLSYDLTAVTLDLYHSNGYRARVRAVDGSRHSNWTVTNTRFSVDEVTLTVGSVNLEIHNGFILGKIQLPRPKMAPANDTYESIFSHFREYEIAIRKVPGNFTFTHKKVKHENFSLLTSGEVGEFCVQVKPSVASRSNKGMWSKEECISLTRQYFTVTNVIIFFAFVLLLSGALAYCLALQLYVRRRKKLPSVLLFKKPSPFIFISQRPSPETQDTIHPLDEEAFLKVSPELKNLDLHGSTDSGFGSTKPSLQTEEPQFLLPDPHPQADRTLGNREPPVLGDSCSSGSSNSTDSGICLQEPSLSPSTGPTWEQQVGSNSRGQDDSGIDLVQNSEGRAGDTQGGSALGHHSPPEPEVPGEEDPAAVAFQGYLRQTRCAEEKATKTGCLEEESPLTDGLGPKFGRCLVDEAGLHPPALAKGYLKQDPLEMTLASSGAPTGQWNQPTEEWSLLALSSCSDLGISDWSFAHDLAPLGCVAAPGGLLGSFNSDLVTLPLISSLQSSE
T1 sequence 2: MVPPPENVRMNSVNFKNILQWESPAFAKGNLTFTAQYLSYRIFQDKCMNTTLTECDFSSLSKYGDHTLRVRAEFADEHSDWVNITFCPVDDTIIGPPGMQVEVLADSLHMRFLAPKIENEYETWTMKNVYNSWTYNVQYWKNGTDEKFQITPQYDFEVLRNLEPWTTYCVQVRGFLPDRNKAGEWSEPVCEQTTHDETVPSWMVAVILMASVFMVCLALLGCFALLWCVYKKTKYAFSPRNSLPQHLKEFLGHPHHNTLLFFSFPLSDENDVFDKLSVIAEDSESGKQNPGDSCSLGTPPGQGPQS
Assay: cell-based or functional assay
Label fulfilled when Abs 630 (25 nM) < 0.6 Abs 630; otherwise not fulfilled.

INSERT INTO results (binder, grouplabel) VALUES
  ('IL10R binding molecule of SEQ ID NO: 284 (bispecific antibody) QVQLQESGGGSVQAGGSLRLSCTVSGYTYSSNCMGWFRQAPGKEREGVATIYTGGGNTYYADSVKGRFTISQDNAKNTVYLQMNNLKPEDTAMYYCAAEPLSRVYGGSCPTPTFDYWGQGTQVTVSSGGGSQVQLQESGGGSVQAGGSLRLSCAASGYTYSSGCMGWFRQAPGKEREAVAAINSDGSTSYADSVKGRFTISKDNAKNTLYLQMNSLKPEDTAMYYCAAEPYCSGGYPRWSVAEFGYWGQGTQVTVSSASHHHHHH', 'fulfilled');

Prompt: Dear reviewer, please state whether IL10R binding molecule of SEQ ID NO: 262 (bispecific antibody) QVQLQESGGGSVQAGGSLRLSCAASRYLYSIDYMAWFRQSPGKEREPVAVIYTASGATFYPDSVKGRFTISQDNAKMTVYLQMNSLKSEDTAMYYCAAVRKTDSYLFDAQSFTYWGQGTQVTVSSGGGSQVQLQESGGGSVQTGGSLRLSCAASGYTYLRGCMGWFRQAPGKEREGVAVMDVVGDRRSYIDSVKGRFTISRDNAANSVYLQMDNLKPEDTAMYYCTAGPNCVGWRSGLDYWGQGTQVTVSSASHHHHHH has Abs 630 (25 nM) strictly beneath 0.6 Abs 630.
Completion: not fulfilled

Prompt: Dear reviewer, please state whether IL10R binding molecule of SEQ ID NO: 281 (bispecific antibody) QVQLQESGGGSVQAGGSLRLSCAVSGYAYSTYCMGWFRQAPGKEREGVAAIDSGGSTSYADSVKGRFTISKDNAKNTLYLRMNSLKPEDTAMYYCAAVPPPPDGGSCLFLGPEIKVSKADFRYWGQGTQVTVSSGGGSQVQLQESGGGSVEAGGSLRLSCAASGYTHSSYCMGWFRQAPGKEREGVAAIDVDGSTTYADSVKGRFTISKDNAKNTLYLQMNSLKPEDTGMYYCAAEFADCSSNYFLPPGAVRYWGQGTQVTVSSASHHHHHH has Abs 630 (25 nM) strictly beneath 0.6 Abs 630.
Completion: not fulfilled

Prompt: Dear reviewer, please state whether IL10R binding molecule of SEQ ID NO: 353 (bispecific antibody) QVQLQESGGGSVQTGGSLRLSCAASGYTYLRGCMGWFRQAPGKEREGVAVMDVVGDRRSYIDSVKGRFTISRDNAANSVYLQMDNLKPEDTAMYYCTAGPNCVGWRSGLDYWGQGTQVTVSSGGGSQVQLQESGGGSVQAGGSLRLSCAASGYSNCSYDMTWYRQAPGKEREFVSAIHSDGSTRYADSVKGRFFISQDNAKNTVYLQMNSLKPEDTAMYYCKTDPLHCRAHGGSWYSVRANYWGQGTQVTVSSASHHHHHH has Abs 630 (25 nM) strictly beneath 0.6 Abs 630.
Completion: fulfilled

Prompt: Dear reviewer, please state whether IL10R binding molecule of SEQ ID NO: 257 (bispecific antibody) QVQLQESGGGSVQAGGSLRLSCAASRYLYSIDYMAWFRQSPGKEREPVAVIYTASGATFYPDSVKGRFTISQDNAKMTVYLQMNSLKSEDTAMYYCAAVRKTDSYLFDAQSFTYWGQGTQVTVSSGGGSQVQLQESGGGSVQAGGSLRLSCAASGYTYSSYCMGWFRQAPGKEREGVAHIDSDGSTSYADSVKGRFTISKDNAKNTLYLQMNSLKPEDTAMYYCAADPIPGPGYCDGGPNKYWGQGTQVTVSSASHHHHHH has Abs 630 (25 nM) strictly beneath 0.6 Abs 630.
Completion: fulfilled

Prompt: Dear reviewer, please state whether IL10R binding molecule of SEQ ID NO: 295 (bispecific antibody) QVQLQESGGGSVQAGGSLRLSCGASGYTYSSYCMGWFRQVPGKEREGVAVIDSDGSTSYADSVKGRFTISKDNGKNTLYLQMNSLKPEDTAMYYCAADLGHYRPPCGVLYLGMDYWGKGTQVTVSSGGGSQVQLQESGGGSVEAGGSLRLSCAASGYTHSSYCMGWFRQAPGKEREGVAAIDVDGSTTYADSVKGRFTISKDNAKNTLYLQMNSLKPEDTGMYYCAAEFADCSSNYFLPPGAVRYWGQGTQVTVSSASHHHHHH has Abs 630 (25 nM) strictly beneath 0.6 Abs 630.
Completion: not fulfilled

Prompt: Dear reviewer, please state whether IL10R binding molecule of SEQ ID NO: 279 (bispecific antibody) QVQLQESGGGSVQAGGSLRLSCAVSGYAYSTYCMGWFRQAPGKEREGVAAIDSGGSTSYADSVKGRFTISKDNAKNTLYLRMNSLKPEDTAMYYCAAVPPPPDGGSCLFLGPEIKVSKADFRYWGQGTQVTVSSGGGSQVQLQESGGGSVQAGGSLRLSCAASRYTYNSYCMGWFRQAPGKEREGVATIDSDGMTRYADSVKGRFTISKDNAKNTLYLQMNSLKPEDTAMYYCAADADCTIAAMTTNPLGQGTQVTVSSASHHHHHH has Abs 630 (25 nM) strictly beneath 0.6 Abs 630.
Completion: fulfilled

Prompt: Dear reviewer, please state whether IL10R binding molecule of SEQ ID NO: 323 (bispecific antibody) QVQLQESGGGSVQAGGSLRLSCAASRYTYNSYCMGWFRQAPGKEREGVATIDSDGMTRYADSVKGRFTISKDNAKNTLYLQMNSLKPEDTAMYYCAADADCTIAAMTTNPLGQGTQVTVSSGGGSQVQLQESGGGSVQAGGSLRLSCTVSGYTYSSNCMGWFRQAPGKEREGVATIYTGGGNTYYADSVKGRFTISQDNAKNTVYLQMNNLKPEDTAMYYCAAEPLSRVYGGSCPTPTFDYWGQGTQVTVSSASHHHHHH has Abs 630 (25 nM) strictly beneath 0.6 Abs 630.
Completion: not fulfilled

Prompt: Dear reviewer, please state whether IL10R binding molecule of SEQ ID NO: 315 (bispecific antibody) QVQLQESGGGSVQAGGSLRLSCAASGYTYSSYCMGWFRQAPGKEREGVAHIDSDGSTSYADSVKGRFTISKDNAKNTLYLQMNSLKPEDTAMYYCAADPIPGPGYCDGGPNKYWGQGTQVTVSSGGGSQVQLQESGGGSVQAGGSLRLSCAVSGYAYSTYCMGWFRQAPGKEREGVAAIDSGGSTSYADSVKGRFTISKDNAKNTLYLRMNSLKPEDTAMYYCAAVPPPPDGGSCLFLGPEIKVSKADFRYWGQGTQVTVSSASHHHHHH has Abs 630 (25 nM) strictly beneath 0.6 Abs 630.
Completion: fulfilled
